Values from ChEMBL document CHEMBL4689842

- Test system: HEK-293T
- assay.info: Multiplex assay against HEK293T
- Format: toxicity, cell-based
- condition.set: human, 12 h, 1 µM, compound concentration 1 uM, replicate 2
measurement.label: Population Mitotic Cells (%)
Reply with just the number (in %).

Recorded Population Mitotic Cells (%) for "N#Cc1cccc(C(=O)Nc2cc(-c3ccccc3)nn2-c2ccccc2)c1" , please?
83

Recorded Population Mitotic Cells (%) for "CC(C)c1cc(Nc2nc(N3CCC[C@H](N)C3)ncc2C(N)=O)cc(C(C)C)n1" , please?
47

Recorded Population Mitotic Cells (%) for "Cc1c(Nc2ccc(S(=O)(=O)N3CCN(C)CC3)cc2F)nc2ccc(-c3cnn(C4CC4)c3)cn2c1=O" , please?
89

Recorded Population Mitotic Cells (%) for Cl.Cn1c2c(c3ccc(Cl)c(Cl)c31)C(C#N)C1(CCNCC1)NC2=O (centres undefined) , please?
97

Recorded Population Mitotic Cells (%) for "CC[C@H](Nc1ncnc2[nH]cnc12)c1nc2cccc(F)c2c(=O)n1-c1ccccc1" , please?
89

Recorded Population Mitotic Cells (%) for "CC(C)[C@H](CO)Nc1nc(Nc2cccc(Cl)c2)c2ncn(C(C)C)c2n1" , please?
80

Recorded Population Mitotic Cells (%) for "CC[C@@H]1C(=O)N(C)c2cnc(Nc3ccc(C(=O)NC4CCN(C)CC4)cc3OC)nc2N1C1CCCC1" , please?
87

Recorded Population Mitotic Cells (%) for "CCOc1ccn(-c2ccc(F)cc2)c(=O)c1C(=O)Nc1ccc(Oc2ccnc(N)c2Cl)c(F)c1" , please?
95

Recorded Population Mitotic Cells (%) for "NC(=O)c1ccc2nc(-c3ccc(C4(N)CCC4)cc3)c(-c3ccccc3)n2n1" , please?
89

Recorded Population Mitotic Cells (%) for "C[C@@H](Oc1cc(-n2cnc3ccc(CN4CCN(C)CC4)cc32)sc1C(N)=O)c1ccccc1C(F)(F)F" , please?
72

Recorded Population Mitotic Cells (%) for CCCCCNC(=N)N/N=C/c1c[nH]c2ccc(OC)cc12.O=C(O)/C=C\C(=O)O [TEGASEROD MALEATE] , please?
75

Recorded Population Mitotic Cells (%) for "Cc1ccc(S(=O)(=O)NC2c3ccccc3Oc3ccccc32)cc1" , please?
78

Recorded Population Mitotic Cells (%) for "Cl.NC[C@@H]1O[C@H](C23CC4CC(CC(C4)C2)C3)Cc2c1ccc(O)c2O" , please?
92

Recorded Population Mitotic Cells (%) for "N#CCNC(=O)c1ccc(-c2ccnc(Nc3ccc(N4CCOCC4)cc3)n2)cc1" , please?
91

Recorded Population Mitotic Cells (%) for "Oc1cccc(-c2nc(N3CCOCC3)c3oc4ncccc4c3n2)c1" , please?
48

Recorded Population Mitotic Cells (%) for CC(Cc1ccc(O)c(O)c1)C(C)Cc1ccc(O)c(O)c1 (centres undefined) [NORDIHYDROGUAIARETIC ACID] , please?
91

Recorded Population Mitotic Cells (%) for "CC(/C=C1\SC(=S)N(CCCC(=O)Nc2ccc(C(=O)O)c(O)c2)C1=O)=C\c1ccccc1" , please?
94

Recorded Population Mitotic Cells (%) for "C=CC(=O)Nc1cc(-n2c(=O)ccc3cnc4ccc(-c5ccc(NS(C)(=O)=O)cc5)cc4c32)ccc1C" , please?
86

* * *

- Tested on: U2OS
- assay.info: Multiplex assay against U2OS
- Format: toxicity, cell-based
- condition.set: human, 12 h, 1 µM, compound concentration 1 uM, replicate 2
Decision: Population Healthy Nuclei (%) >= 80% yields rule met, all other cases yield rule not met.

Check this molecule for Population Healthy Nuclei (%) at or above 80%: "Cl.NC[C@@H]1O[C@H](C23CC4CC(CC(C4)C2)C3)Cc2c1ccc(O)c2O"
rule met

Check this molecule for Population Healthy Nuclei (%) at or above 80%: N#CCNC(=O)c1ccc(-c2ccnc(Nc3ccc(N4CCOCC4)cc3)n2)cc1 [MOMELOTINIB]
rule met

Check this molecule for Population Healthy Nuclei (%) at or above 80%: Oc1cccc(-c2nc(N3CCOCC3)c3oc4ncccc4c3n2)c1 [PI-103]
rule not met

Check this molecule for Population Healthy Nuclei (%) at or above 80%: "CCCCN(CC)c1nc(C)nc2c1c(C)cn2-c1c(C)cc(C)cc1C.Cl"
rule not met

Check this molecule for Population Healthy Nuclei (%) at or above 80%: "Cc1ccc(S(=O)(=O)NC2c3ccccc3Oc3ccccc32)cc1"
rule not met

Check this molecule for Population Healthy Nuclei (%) at or above 80%: "CCOC(=O)CCNc1cc(N2CCc3ccccc3CC2)nc(-c2ccccn2)n1"
rule met

Check this molecule for Population Healthy Nuclei (%) at or above 80%: "N#Cc1cccc(C(=O)Nc2cc(-c3ccccc3)nn2-c2ccccc2)c1"
rule met

Check this molecule for Population Healthy Nuclei (%) at or above 80%: "Cc1c(Nc2ccc(S(=O)(=O)N3CCN(C)CC3)cc2F)nc2ccc(Nc3cnn(C4CC4)c3)cn2c1=O"
rule met

Check this molecule for Population Healthy Nuclei (%) at or above 80%: "Cc1ccc(NC(=O)Nc2cc(C(F)(F)F)ccc2F)cc1Nc1ccc2c(c1)NC(=O)/C2=C\c1ccc[nH]1"
rule not met

Check this molecule for Population Healthy Nuclei (%) at or above 80%: "CCCc1cc(C)[nH]c(=O)c1CNC(=O)c1cc(-c2ccc(N3CCN(C(C)C)CC3)nc2)cc2c1cnn2C(C)C"
rule not met

* * *

- System: Fibroblast
- assay.info: Multiplex assay against human fibroblast
- Assay type: toxicity, cell-based
- condition.set: 24 h, 1 µM, compound concentration 1 uM, replicate 2
Please provide measured Population Apoptotic (%) for the entries that follow.
Reply with just the number (in %).

# get_value(readout= Population Apoptotic (%), system= Fibroblast) for CC(Cc1ccc(O)c(O)c1)C(C)Cc1ccc(O)c(O)c1 (stereo unspecified) [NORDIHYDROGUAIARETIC ACID]
0

# get_value(readout= Population Apoptotic (%), system= Fibroblast) for "CN(c1cc(C(F)(F)F)nc(OCCC(=O)O)n1)c1cccc2c1CCC2"
0

# get_value(readout= Population Apoptotic (%), system= Fibroblast) for "Cc1c(Nc2ccc(S(=O)(=O)N3CCN(C)CC3)cc2F)nc2ccc(-c3cnn(C4CC4)c3)cn2c1=O"
80

# get_value(readout= Population Apoptotic (%), system= Fibroblast) for "C[C@@H](Oc1cc(-n2cnc3ccc(CN4CCN(C)CC4)cc32)sc1C(N)=O)c1ccccc1C(F)(F)F"
50

# get_value(readout= Population Apoptotic (%), system= Fibroblast) for "N#CCNC(=O)c1ccc(-c2ccnc(Nc3ccc(N4CCOCC4)cc3)n2)cc1"
66

# get_value(readout= Population Apoptotic (%), system= Fibroblast) for "Oc1cccc(-c2nc(N3CCOCC3)c3oc4ncccc4c3n2)c1"
75

# get_value(readout= Population Apoptotic (%), system= Fibroblast) for "CCCc1cc(C)[nH]c(=O)c1CNC(=O)c1cc(-c2ccc(N3CCN(C(C)C)CC3)nc2)cc2c1cnn2C(C)C"
33

# get_value(readout= Population Apoptotic (%), system= Fibroblast) for "CCOc1ccn(-c2ccc(F)cc2)c(=O)c1C(=O)Nc1ccc(Oc2ccnc(N)c2Cl)c(F)c1"
50

# get_value(readout= Population Apoptotic (%), system= Fibroblast) for "N#Cc1cccc(C(=O)Nc2cc(-c3ccccc3)nn2-c2ccccc2)c1"
14

# get_value(readout= Population Apoptotic (%), system= Fibroblast) for "Cc1c(Nc2ccc(S(=O)(=O)N3CCN(C)CC3)cc2F)nc2ccc(Nc3cnn(C4CC4)c3)cn2c1=O"
100

# get_value(readout= Population Apoptotic (%), system= Fibroblast) for Cl.Cn1c2c(c3ccc(Cl)c(Cl)c31)C(C#N)C1(CCNCC1)NC2=O (stereo unspecified)
0

* * *

Please provide measured Population Apoptotic (%) for the entries that follow.
- Test system: U2OS
- assay.info: Multiplex assay against U2OS
- Assay type: toxicity, cell-based
- condition.set: human, 24 h, 1 µM, compound concentration 1 uM, replicate 1
Reply with just the number (in %).

Recorded Population Apoptotic (%) for "Cc1c(Nc2ccc(S(=O)(=O)N3CCN(C)CC3)cc2F)nc2ccc(Nc3cnn(C4CC4)c3)cn2c1=O" , please?
50

Recorded Population Apoptotic (%) for "Cl.NC[C@@H]1O[C@H](C23CC4CC(CC(C4)C2)C3)Cc2c1ccc(O)c2O" , please?
46

Recorded Population Apoptotic (%) for "CCOC(=O)CCNc1cc(N2CCc3ccccc3CC2)nc(-c2ccccn2)n1" , please?
33

Recorded Population Apoptotic (%) for "Oc1cccc(-c2nc(N3CCOCC3)c3oc4ncccc4c3n2)c1" , please?
56

Recorded Population Apoptotic (%) for "CC(/C=C1\SC(=S)N(CCCC(=O)Nc2ccc(C(=O)O)c(O)c2)C1=O)=C\c1ccccc1" , please?
53

Recorded Population Apoptotic (%) for "N#Cc1cccc(C(=O)Nc2cc(-c3ccccc3)nn2-c2ccccc2)c1" , please?
23

Recorded Population Apoptotic (%) for CC(Cc1ccc(O)c(O)c1)C(C)Cc1ccc(O)c(O)c1 (centres undefined) [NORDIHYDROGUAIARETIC ACID] , please?
45

Recorded Population Apoptotic (%) for "Cc1c(Nc2ccc(S(=O)(=O)N3CCN(C)CC3)cc2F)nc2ccc(-c3cnn(C4CC4)c3)cn2c1=O" , please?
0

Recorded Population Apoptotic (%) for "CN(c1cc(C(F)(F)F)nc(OCCC(=O)O)n1)c1cccc2c1CCC2" , please?
40
